- testName: in vitro
- conditionInfo: dog, TOX MDCK CC50
readout: CC50 at 3 days (µM)
Numbers only, in µM.

INSERT INTO measurements (compound, readout, observedresult) VALUES
  ('Cc1cc(F)c2[nH]cc(-c3ncc(F)c(NC(CC(=O)O)C(C)(C)c4nccs4)n3)c2c1 (stereo not shown) [Compound 233]', 'CC50 at 3 days', 17.3),
  ('Cc1cc(C(=O)N[C@@H]2CCC[C@H](Nc3nc(-c4c[nH]c5c(F)cc(F)cc45)ncc3F)C2)nn1C (racemic) [Compound 96]', 'CC50 at 3 days', 10.5);

Switching to the query record.
Value of measured CC50 at 3 days for the entry Nc1cccc(C(=O)N[C@@H]2CCC[C@H](Nc3nc(-c4c[nH]c5c(F)cc(Cl)cc45)ncc3F)C2)n1 [Compound 38] : 2.7
